Every entry's value here was drawn from PubChem BioAssay.

Can you tell me inhibition for the items I'm about to list?
target: Pantothenate synthetase (Mycobacterium tuberculosis (strain ATCC 25618 / H37Rv)); test: Coupled enzyme confirmation of inhibitors against recombinant Mtb PanC (AID 375); details: coupled enzyme assay; at 10 µM, active compounds read high;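 note: 0% = full reaction with vehicle and 100% = no enzyme background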
Numbers only; they are read as %.

Req: Can you share its inhibition? I mean this compound: CCCCCCC(C)n1[nH]c(=O)c2c(C)cc(=O)[nH]c21 (stereo unspecified)
Resp: 5

Req: Can you share its inhibition? I mean this compound: C/C=C/Cn1c(SCCCc2ccccc2)nc2c1c(=O)[nH]c(=O)n2C
Resp: 0

Req: Can you share its inhibition? I mean this compound: O=C(Nc1nnc(C2CCCCC2)s1)c1cccs1
Resp: 8

Req: Can you share its inhibition? I mean this compound: CC1CCCN(C(=O)c2cc3c(-c4ccc(Cl)cc4)nn(C)c3s2)C1 (stereo unspecified)
Resp: 4

Req: Can you share its inhibition? I mean this compound: Cc1cc(C)nc(N2CCCC(C(=O)Nc3nc4ccc(S(C)(=O)=O)cc4s3)C2)n1 (stereo unspecified)
Resp: 4

Req: Can you share its inhibition? I mean this compound: CCCN(CCC)S(=O)(=O)c1ccc(NS(C)(=O)=O)cc1
Resp: 0

Req: Can you share its inhibition? I mean this compound: O=C(Nc1ccccc1-c1nc2ccccc2o1)c1ccc2c(c1)OCCO2
Resp: 5

Req: Can you share its inhibition? I mean this compound: Nn1c(Cc2ccccc2F)nnc1SCC(=O)N1CC(=O)Nc2ccccc21
Resp: 0

Req: Can you share its inhibition? I mean this compound: O=C1CC(C(=O)Nc2ccccc2)C2(CCCC2)O1 (stereo unspecified)
Resp: 2

Req: Can you share its inhibition? I mean this compound: COC(=O)C1=C(C)Nc2ncnn2C1c1ccco1 (stereo unspecified)
Resp: 0

Req: Can you share its inhibition? I mean this compound: c1ccc(-c2nnc(CN3CCC4(CC3)OCCO4)o2)cc1
Resp: 1

Req: Can you share its inhibition? I mean this compound: O=C(O)CSc1ccc2ccccc2n1
Resp: 5

Req: Can you share its inhibition? I mean this compound: CCOc1ccc(C2CC(c3ccccc3C)n3nc(N)nc3N2)cc1 (stereo unspecified)
Resp: 0

Req: Can you share its inhibition? I mean this compound: COc1cccc(NC(=O)N(Cc2ccco2)C(C)c2cccs2)c1 (stereo unspecified)
Resp: 2

Req: Can you share its inhibition? I mean this compound: CN(C)[C@@H]1C(=O)C(C(N)=O)=C(O)[C@@]2(O)C(=O)C3=C(O)c4c(O)ccc(Cl)c4[C@@](C)(O)C3C[C@@H]12 (stereo partly specified)
Resp: 1

Req: Can you share its inhibition? I mean this compound: CC1(C)Oc2ccc3ccc(=O)oc3c2C(N2CCCCC2)C1O (stereo unspecified)
Resp: 0

Req: Can you share its inhibition? I mean this compound: COCCNC(=O)Cn1cc2c(n1)CCCCC2
Resp: 1

Req: Can you share its inhibition? I mean this compound: Cc1nc(-c2coc3cc(OCC(=O)O)ccc3c2=O)cs1
Resp: 0

Req: Can you share its inhibition? I mean this compound: Cc1ccc(CC2SC(=O)NC2=O)cc1Cl (stereo unspecified)
Resp: 0

Req: Can you share its inhibition? I mean this compound: Cc1cnnc2c1-c1nonc1CC2
Resp: 4

Req: Can you share its inhibition? I mean this compound: CC(C)(C)c1ccc(OCC(=O)O)cc1
Resp: 1

Req: Can you share its inhibition? I mean this compound: COc1cccc(C2=NOC(C(=O)N3CCN(c4ccccc4)CC3)C2)c1OC (stereo unspecified)
Resp: 1

Req: Can you share its inhibition? I mean this compound: CN(Cc1ccco1)C(=O)Cn1c(=O)oc2cc(S(=O)(=O)NCc3ccccc3)ccc21
Resp: 0

Req: Can you share its inhibition? I mean this compound: COC(=O)CN(c1ccc2c(c1)OCO2)S(C)(=O)=O
Resp: 4

Req: Can you share its inhibition? I mean this compound: CCn1nc(-c2ccccc2)nc2c(=O)n(C)c(=O)nc1-2
Resp: 0

Req: Can you share its inhibition? I mean this compound: CC(OC(=O)CNC(=O)C12CC3CC(CC(C3)C1)C2)C(=O)Nc1ccc(N2CCOCC2)cc1 (stereo unspecified)
Resp: 0

Req: Can you share its inhibition? I mean this compound: C=C(c1ccc(O)cc1)c1ccc(O)cc1
Resp: 0

Req: Can you share its inhibition? I mean this compound: CSCC[C@@H](Nc1nc(-c2ccccc2)nc2c1oc1ccccc12)C(=O)O
Resp: 4

Req: Can you share its inhibition? I mean this compound: Brc1ccc(-c2csc(/N=C/N3CCOCC3)n2)cc1
Resp: 3

Req: Can you share its inhibition? I mean this compound: COc1ccc(C(=O)NCCn2ccc3ccccc32)c(OC)c1
Resp: 5

Req: Can you share its inhibition? I mean this compound: S=c1[nH]nc(-c2ccccc2)n1C1C=CCCC1 (stereo unspecified)
Resp: 0

Req: Can you share its inhibition? I mean this compound: O=C(Nc1cccnc1)c1noc2c1CCCCC2
Resp: 0

Req: Can you share its inhibition? I mean this compound: Cc1ccc(NC(=O)CSc2nnc(-c3cnccn3)n2Cc2ccco2)cc1C
Resp: 0

Req: Can you share its inhibition? I mean this compound: CC(C)(Oc1ccc(Cl)cc1)C(=O)NCc1ccncc1
Resp: 3

Req: Can you share its inhibition? I mean this compound: COC(=O)Cc1cc(=O)[nH]c(Nc2nc3ccccc3o2)n1
Resp: 0

Req: Can you share its inhibition? I mean this compound: COCCNC(=O)C(c1ccncc1)N(C(=O)Cn1nnc2ccccc21)c1ccc(OC)cc1 (stereo unspecified)
Resp: 0

Req: Can you share its inhibition? I mean this compound: COc1ccccc1N1CCN(C(=O)c2oc3cc(C)c(C)cc3c2C)CC1
Resp: 0

Req: Can you share its inhibition? I mean this compound: Cc1ccc(Cl)c(Nc2ccccc2C(=O)O)c1Cl
Resp: 0

Req: Can you share its inhibition? I mean this compound: O=C(NC1=NCCS1)c1ccc2c(c1)C(=O)N(Cc1ccco1)C2=O
Resp: 0

Req: Can you share its inhibition? I mean this compound: COC(=O)NCC(c1cccnc1)N1CCOCC1 (stereo unspecified)
Resp: 0

Req: Can you share its inhibition? I mean this compound: O=C1CC(c2ccco2)CC(O)=C1C=NCC1NCCc2ccccc21 (stereo unspecified)
Resp: 0

Req: Can you share its inhibition? I mean this compound: COc1ccc(C2(C(=O)Nc3c(C)n(C)n(-c4ccccc4)c3=O)CCCC2)cc1OC
Resp: 1

Req: Can you share its inhibition? I mean this compound: CCCCn1nnnc1SCC(=O)Nc1cccc(C)n1
Resp: 1

Req: Can you share its inhibition? I mean this compound: COc1cccc(C(=O)Nc2ncc3c(n2)CC(C)CC3=O)c1 (stereo unspecified)
Resp: 5

Req: Can you share its inhibition? I mean this compound: Cc1cccc(CN2CCC(CNC(=O)C3CCCN(S(=O)(=O)c4cnc[nH]4)C3)CC2)c1 (stereo unspecified)
Resp: 0

Req: Can you share its inhibition? I mean this compound: Cc1oc2c(CN3CCCC3)c(O)ccc2c(=O)c1-c1ccccc1
Resp: 0

----------
Can you tell me inhibition for the items I'm about to list?
target: Pantothenate synthetase (Mycobacterium tuberculosis (strain ATCC 25618 / H37Rv)) (UniProt P9WIL5); assay: Coupled enzyme confirmation of inhibitors against recombinant Mtb PanC (AID 375); conditions: coupled enzyme assay; at 10 µM, active compounds read high;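 note: 0% = full reaction with vehicle and 100% = no enzyme background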
Sequence (P9WIL5 whole entry, looked up): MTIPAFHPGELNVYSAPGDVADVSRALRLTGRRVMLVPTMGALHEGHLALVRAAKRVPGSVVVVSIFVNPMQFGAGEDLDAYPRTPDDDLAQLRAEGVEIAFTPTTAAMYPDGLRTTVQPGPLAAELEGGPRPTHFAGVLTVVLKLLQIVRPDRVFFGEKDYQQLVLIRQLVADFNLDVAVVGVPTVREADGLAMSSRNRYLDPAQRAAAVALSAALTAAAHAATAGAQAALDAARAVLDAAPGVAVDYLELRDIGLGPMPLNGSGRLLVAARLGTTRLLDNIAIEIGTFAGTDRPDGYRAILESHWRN
Numbers only; they are read as %.

Req: Can you share its inhibition? I mean this molecule: COc1ccc(NC(=O)N(C2CCCCC2)C2CCN(C(C)C)CC2)c(OC)c1
Resp: 0

Req: Can you share its inhibition? I mean this molecule: CCCCCn1c(CN2CCN(c3cccc(Cl)c3)CC2)nc2c1c(=O)n(C)c(=O)n2C
Resp: 0

Req: Can you share its inhibition? I mean this molecule: Cn1c(/C=N/n2cnnc2)nc2ccccc21
Resp: 2

Req: Can you share its inhibition? I mean this molecule: O=C(OCc1nnc(-c2ccc(Cl)cc2)o1)c1ccc(=O)n(Cc2ccccc2)n1
Resp: 0

Req: Can you share its inhibition? I mean this molecule: O=C(c1ncc[nH]1)c1ccccc1C(=O)N1CCOCC1
Resp: 1

Req: Can you share its inhibition? I mean this molecule: Cc1cccc(Nc2nc(N)nc(CN3CCC(C(N)=O)CC3)n2)c1C
Resp: 0

Req: Can you share its inhibition? I mean this molecule: COc1ccc(CNC(=O)c2cnc3n(c2=O)CCS3)cc1
Resp: 0

Req: Can you share its inhibition? I mean this molecule: COc1ccc(NC(=O)Cn2nnc(-c3ccccc3F)n2)cc1Cl
Resp: 0

Req: Can you share its inhibition? I mean this molecule: COCC(C)NC(=O)CCS(=O)(=O)c1nc(-c2ccc(OC)cc2)cc(C(F)(F)F)n1 (stereo unspecified)
Resp: 0

Req: Can you share its inhibition? I mean this molecule: CCCCc1cc(=O)oc2cc(C)cc(OC(C)C(=O)O)c12 (stereo unspecified)
Resp: 0

Req: Can you share its inhibition? I mean this molecule: COc1ccc(C(=O)Nc2ccc(C)cn2)c(OC)c1
Resp: 0
